Target chain: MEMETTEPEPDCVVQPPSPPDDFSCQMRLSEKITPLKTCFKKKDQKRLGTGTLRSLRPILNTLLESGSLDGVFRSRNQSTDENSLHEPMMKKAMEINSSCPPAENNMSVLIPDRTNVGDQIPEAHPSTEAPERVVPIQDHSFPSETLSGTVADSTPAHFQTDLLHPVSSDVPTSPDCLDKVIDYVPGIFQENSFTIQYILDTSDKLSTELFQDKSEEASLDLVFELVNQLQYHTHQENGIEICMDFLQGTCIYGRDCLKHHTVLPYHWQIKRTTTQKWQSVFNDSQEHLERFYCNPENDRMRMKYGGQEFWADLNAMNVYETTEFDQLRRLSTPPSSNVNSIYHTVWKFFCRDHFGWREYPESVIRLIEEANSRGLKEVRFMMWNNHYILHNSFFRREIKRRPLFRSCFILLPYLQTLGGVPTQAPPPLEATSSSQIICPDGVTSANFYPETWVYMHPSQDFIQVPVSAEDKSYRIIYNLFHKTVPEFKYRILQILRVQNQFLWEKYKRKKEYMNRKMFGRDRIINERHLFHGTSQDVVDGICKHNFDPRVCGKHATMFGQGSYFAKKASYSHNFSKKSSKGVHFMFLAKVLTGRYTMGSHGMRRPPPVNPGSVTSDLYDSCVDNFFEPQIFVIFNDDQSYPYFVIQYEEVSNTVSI
observationType: pIC50
Numbers only, as −log10 of the molar value.

Here are 2 compounds together with their reported answers.
chemSmiles: O=C(Oc1cccc(-c2c[nH]c(=O)c(C(F)(F)F)c2)c1)N1CCN(c2ncc(C(F)(F)F)cn2)[C@H](CO)C1
pIC50: 9.13
--
chemSmiles: C[C@@H]1CN(c2ncc(C3CC3)cn2)[C@H](C)CN1C(=O)OCCc1c[nH]c(=O)c(C(F)(F)F)c1
pIC50: 9.00

Next item in the queue.
Quick one: pIC50 for Cc1cnc(N2C[C@@H](C)N(C(=O)OCCc3c[nH]c(=O)c(C(F)(F)F)c3)C[C@H]2C)nc1 ? 8.82
